# Tested on: Fer (mouse)
# assay-method-text: phosphorylation enrichment, bacterial display (enrichment ratio); higher = better substrate or ligand; peptides without Tyr show the background;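 further: 11-residue human phosphosite peptides and single-mutation variants displayed on the E. coli surface, counted by deep sequencing, each peptide's frequency after selection divided by its frequency in the unselected input library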;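 further: frequency after pTyr selection over input frequency; kinase dosed for 20-30% of maximal phosphorylation in three min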
Tick Met if phosphorylation enrichment is 0.6 or greater. Tick Not met if phosphorylation enrichment is less than 0.6.

Input: Threshold query (phosphorylation enrichment >= 0.6) on CTTIHYNFMCI [TP53_Y234_N239I_YF]
Output: Met

Input: Entry PDMHSYMVRYN [GRIN2D_Y732] : is its phosphorylation enrichment no less than 0.6?
Output: Met

Input: Exam item: decide whether the reported phosphorylation enrichment for SAPPSYEETVA [LITAF_Y23] is at least 0.6.
Output: Not met

Input: hey, is phosphorylation enrichment for this one >= 0.6? NNFGNYNNQSS [HNRNPA1_Y318_D314N]
Output: Not met

Input: Hello, I need to know if FSMGCYEISLG [HMGCL_Y198_YF] has measured phosphorylation enrichment not below 0.6. Thanks!
Output: Met

Input: Please indicate if the recorded phosphorylation enrichment for PLYRKYWPNHI [GREB1L_Y1560] meets or exceeds 0.6.
Output: Met

Input: Textbook exercise: given the entry ISKTWYSAEQF [CD207_Y217_P213S] , state whether its phosphorylation enrichment is greater than or equal to 0.6.
Output: Not met

Input: # check: phosphorylation enrichment of CTTVHYNYMCN [TP53_Y234_I232V] is greater than or equal to 0.6
Output: Met

----------
# measured-on: EPHB2 (UniProt P29323)
# Sequence (P29323 whole entry, looked up): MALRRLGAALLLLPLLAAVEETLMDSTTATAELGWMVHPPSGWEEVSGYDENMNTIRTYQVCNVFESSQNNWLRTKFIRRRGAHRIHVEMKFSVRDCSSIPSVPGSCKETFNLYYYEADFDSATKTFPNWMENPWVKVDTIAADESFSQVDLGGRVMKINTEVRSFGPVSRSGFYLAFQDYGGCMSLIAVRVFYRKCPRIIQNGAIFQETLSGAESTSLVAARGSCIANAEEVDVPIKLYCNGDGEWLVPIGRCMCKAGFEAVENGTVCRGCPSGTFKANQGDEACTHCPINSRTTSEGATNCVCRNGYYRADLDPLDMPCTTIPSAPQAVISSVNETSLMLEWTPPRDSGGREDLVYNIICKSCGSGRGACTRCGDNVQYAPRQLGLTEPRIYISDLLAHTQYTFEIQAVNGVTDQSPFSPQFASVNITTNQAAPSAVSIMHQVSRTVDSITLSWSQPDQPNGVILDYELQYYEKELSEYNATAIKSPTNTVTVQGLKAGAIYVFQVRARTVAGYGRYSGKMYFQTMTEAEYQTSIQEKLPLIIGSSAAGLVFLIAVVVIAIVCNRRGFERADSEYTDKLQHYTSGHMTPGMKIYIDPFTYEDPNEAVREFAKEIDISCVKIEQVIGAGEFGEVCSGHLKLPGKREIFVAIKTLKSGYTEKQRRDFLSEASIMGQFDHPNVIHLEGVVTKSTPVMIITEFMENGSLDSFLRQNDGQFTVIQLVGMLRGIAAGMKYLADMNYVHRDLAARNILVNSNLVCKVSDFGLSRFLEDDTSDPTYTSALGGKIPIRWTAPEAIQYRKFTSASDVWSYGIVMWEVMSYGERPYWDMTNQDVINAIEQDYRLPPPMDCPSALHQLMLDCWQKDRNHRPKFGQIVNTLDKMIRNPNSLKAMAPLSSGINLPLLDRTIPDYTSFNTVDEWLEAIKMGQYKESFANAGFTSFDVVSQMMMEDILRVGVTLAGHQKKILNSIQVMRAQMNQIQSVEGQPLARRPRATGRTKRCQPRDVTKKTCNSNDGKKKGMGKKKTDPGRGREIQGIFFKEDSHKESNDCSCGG
# assay-method-text: phosphorylation enrichment, bacterial display (enrichment ratio); higher = better substrate or ligand; peptides without Tyr show the background
endpoint-label: phosphorylation enrichment
Kindly provide the number alone.

Illustrative cases are given below, each with its answer.
1) RQSTLYSFFPK [MSH6_Y8] :: 18.9
2) DRPASYKKKSM [PDGFRA_Y768] :: 0.367
3) CTTIHYNFMCI [TP53_Y234_N239I_YF] :: 0.673

Input: Return phosphorylation enrichment (reported value) for this sequence: DRTVHYVDEKG [IFT140_Y216_G212R]
Output: 0.436

Input: Please indicate phosphorylation enrichment recorded for NRLTDYYELLL [BBS10_Y536_P539L]
Output: 1.66

Input: Specify measured phosphorylation enrichment for SVEELYAIPPD [PEAK1_Y797] .
Output: 13.6

Input: Supply reported phosphorylation enrichment belonging to this sequence: NALAQYQEMEK [BBS4_Y395]
Output: 0.471

----------
# measured-on: EPHB2 (UniProt P29323)
# assay-method-text: phosphorylation enrichment, bacterial display (enrichment ratio); higher = better substrate or ligand; peptides without Tyr show the background
endpoint-label: phosphorylation enrichment
Give your answer as a number; write no unit.

Input: Provide measured phosphorylation enrichment value, entry: FGSSSYGGAGG [RPA2_Y14_YF]
Output: 0.401

Input: In one line, give reported phosphorylation enrichment of the entry EERKTYVNTTL [TEK_Y1102] .
Output: 0.519

Input: Consider the sequence RLKAKYPAATG [GLI3_Y933_A934P] and give its recorded phosphorylation enrichment.
Output: 0.697

Input: Please give the documented phosphorylation enrichment of PLRANYLIARV [HLCS_Y635_D634N]
Output: 0.861

Input: Respond only with phosphorylation enrichment recorded for IIEDPYYGNDS [ACP1_Y132]
Output: 0.623

Input: Provide only the value of recorded phosphorylation enrichment for DGSALYTGSAL [COL6A3_Y524]
Output: 0.439

Input: Tell me phosphorylation enrichment reported for KMGNIYRTEYG [MRPL3_Y265]
Output: 0.373

Input: Provide phosphorylation enrichment value for the following sequence: PSELFYSKIGP [SMG1_Y2254_YF]
Output: 2.08

Input: Report phosphorylation enrichment, nothing else, for this sequence: ADLVQYFMEHH [PTPN11_Y80_E76D_YF]
Output: 0.545

Input: Input NGTVSYAIVAG [CDH23_Y1672_T1671S] , output reported phosphorylation enrichment.
Output: 0.575

Input: Quote phosphorylation enrichment reported for FTRNFYVQAVL [CYBA_Y88_R90Q_YF] please.
Output: 0.57

Input: For LTERSYSFVTT [ACTA1_Y200_G199S] , write its phosphorylation enrichment.
Output: 0.984

Input: Annotate the sequence LRRFIYRPPDQ [OTOF_Y1231_R1236Q] with its measured phosphorylation enrichment.
Output: 0.606

Input: Report phosphorylation enrichment for DFTSRYLNASD [PKHD1_Y828]
Output: 0.407
